Target: R140Q IDH2 (Homo sapiens, UniProt P48735, R140Q)
Construct: made in house; host or cells: Sf21 insect cells (cell pellets prepared at Evotec)
Sequence (P48735 40-452 R140Q): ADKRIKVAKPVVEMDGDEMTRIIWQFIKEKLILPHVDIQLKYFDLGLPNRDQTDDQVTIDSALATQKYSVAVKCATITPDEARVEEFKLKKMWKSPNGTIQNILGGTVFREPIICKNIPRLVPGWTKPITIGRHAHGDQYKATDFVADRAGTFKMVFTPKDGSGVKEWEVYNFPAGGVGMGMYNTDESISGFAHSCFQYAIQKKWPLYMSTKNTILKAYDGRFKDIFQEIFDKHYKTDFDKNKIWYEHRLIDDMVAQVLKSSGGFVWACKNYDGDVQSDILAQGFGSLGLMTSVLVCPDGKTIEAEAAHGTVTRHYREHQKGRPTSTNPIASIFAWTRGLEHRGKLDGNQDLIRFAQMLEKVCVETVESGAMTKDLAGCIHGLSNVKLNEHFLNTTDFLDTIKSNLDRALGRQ
Experiment: Absorbance assay, variant activity in the presence of equimolar 2OG (inhibition screen)
Assay type: biochemical
Conditions: 6.0 mM 2OG and 6.0 mM test compound, 0.03 μM R140Q IDH2, 50 μM NADPH
activity [%] (%-substrate conversion after 20 min incubation): recorded values

A selection of reference data follows.
Q) Find the recorded activity [%] (%-substrate conversion after 20 min incubation) belonging to CC(CC(=O)O)C(=O)C(=O)O (stereo not drawn) [compound 1, 3-methyl-2OG] and report it.
A) 107 ± 4%

Q) Do the same for CC(=O)C(=O)O [pyruvic acid] please
A) 108 ± 4%

Q) Let us now turn to CC1(C)c2ccccc2-c2ccc(CC(CC(=O)O)C(=O)C(=O)O)cc21 (racemic) [compound 11]
A) < 10%

Q) // same read-out, input: CC1(C)C(C(=O)O)C1C(=O)C(=O)O (mixture of isomers) [compound 22]
A) 112 ± 4%

Q) How about this compound: O=C(O)C(=O)c1ccc(C(=O)O)cc1 [compound 30]
A) 94 ± 3%

Q) Okay, and O=C(O)CCC(=O)O [succinic acid] ?
A) 124 ± 11%

---
Q) For O=C(O)C(=O)C1CC=CCC1C(=O)O (mixture of isomers) [compound 27] , what is its reported activity [%] (%-substrate conversion after 20 min incubation)?
A) 97 ± 4%

Q) One more compound: CC(CC(=O)O)C(=O)O (racemic) [DL-2-methylsuccinic acid]
A) 115 ± 12%

Q) Same question for COC(=O)CCC(=O)C(=O)OC [dimethyl 2-oxoglutaric acid] please.
A) 124 ± 12%

###

The molecules listed here are annotated with their activity [%] (%-substrate conversion after 20 min incubation).
molecular target: R172K IDH2 (Homo sapiens, UniProt P48735, R172K); construct: made in house; host or cells: Sf21 insect cells (cell pellets prepared at Evotec); assay: Absorbance assay, variant activity in the presence of equimolar 2OG (inhibition screen); assay type: biochemical; conditions: 1.0 mM 2OG and 1.0 mM test compound, 0.03 μM R172K IDH2, 50 μM NADPH
Where a name gives a salt, the structure may show the parent alone.

The cases that follow already have their activity [%] (%-substrate conversion after 20 min incubation) on record.
Q) For CC(O)C(=O)O (racemic) , what is its reported activity [%] (%-substrate conversion after 20 min incubation)?
A) 100 ± 8%

Q) Another molecule to look at: CC(CC(=O)O)C(=O)O (racemic)
A) 102 ± 9%

Q) Next up: O=C(O)CCC(O)C(=O)O (racemic) [DL-2-hydroglutaric acid]
A) 95 ± 4%

Q) Then CCC(CC(=O)O)C(=O)C(=O)O (racemic) ?
A) 131 ± 16%

Q) Then what about the molecule COC(=O)/C=C/C(=O)OC [dimethyl fumarate] ?
A) 91 ± 2%

Please look at the following molecule next.
Q) What does the record list as activity [%] (%-substrate conversion after 20 min incubation) for COC(=O)/C=C/C(=O)O [mono-methyl fumarate] ?
A) 92 ± 6%
